target.or.system: T1, IL-2 receptor βγ complex on pan T cells (human, UniProt P14784 27-551; P31785 23-369)
T1 sequence (looked up) 1: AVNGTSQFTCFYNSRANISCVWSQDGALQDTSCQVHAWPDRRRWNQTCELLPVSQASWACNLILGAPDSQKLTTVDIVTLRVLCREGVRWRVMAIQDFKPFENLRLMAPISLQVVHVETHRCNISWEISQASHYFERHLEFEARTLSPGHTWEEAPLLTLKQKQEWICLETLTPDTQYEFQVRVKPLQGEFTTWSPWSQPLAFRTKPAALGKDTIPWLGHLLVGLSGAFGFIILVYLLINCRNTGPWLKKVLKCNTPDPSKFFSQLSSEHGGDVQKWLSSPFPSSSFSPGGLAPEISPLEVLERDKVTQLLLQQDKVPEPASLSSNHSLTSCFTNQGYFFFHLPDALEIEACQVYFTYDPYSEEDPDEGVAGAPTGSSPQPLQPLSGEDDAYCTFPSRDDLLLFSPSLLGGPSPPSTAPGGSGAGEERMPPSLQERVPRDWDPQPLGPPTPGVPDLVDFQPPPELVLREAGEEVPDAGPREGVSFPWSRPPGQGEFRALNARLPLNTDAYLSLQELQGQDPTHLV
T1 sequence (looked up) 2: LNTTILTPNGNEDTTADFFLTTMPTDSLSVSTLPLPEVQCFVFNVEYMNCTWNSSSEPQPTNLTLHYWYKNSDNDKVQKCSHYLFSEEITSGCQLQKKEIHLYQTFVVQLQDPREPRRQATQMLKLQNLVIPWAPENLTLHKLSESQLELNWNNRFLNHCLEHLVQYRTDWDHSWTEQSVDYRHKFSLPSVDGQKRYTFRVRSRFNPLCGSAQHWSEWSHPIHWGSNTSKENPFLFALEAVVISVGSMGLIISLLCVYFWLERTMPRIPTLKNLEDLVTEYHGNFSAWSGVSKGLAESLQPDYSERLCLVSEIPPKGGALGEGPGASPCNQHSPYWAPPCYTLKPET
run.description: cell-based or functional assay
[ ]: non-standard residue; d: D form. Ygp = O-(8x polyethylene glycol-amino)-tyrosine; Yn3 = O-(9x polyethylene glycol-azido)-tyrosine; hSer = N[C@@H](CCO)C(=O)O; Nle = CCCC[C@H](N)C(=O)O
Item-by-item account of Average EC50, pSTAT5 assay in pan T cells, MMP2 cleaved molecule
quantity.measured: Average EC50, pSTAT5 assay in pan T cells, MMP2 cleaved molecule

| binder | test.result |
| --- | --- |
| CMP-304, MMP2 cleaved (ligand, ends and bridges not checked; also: cleaved by MMP2 within the cleavable peptide, macrocycle opened, cut site not given here, PEG9 linker) PLGLAGAPTSSSTKKTQLQLEHLLLDLQEILNGINNYKNPKLTR[Nle]L[hSer][Yn3]KF[Ygp][Nle]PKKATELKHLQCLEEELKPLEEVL[hSer]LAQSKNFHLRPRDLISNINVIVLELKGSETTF[hSer]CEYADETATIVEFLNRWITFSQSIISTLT | 8.61 nM |
| CMP-167, MMP2 cleaved (ligand, not fully specified; as CMP-167 but cleavable peptide cut by MMP2 (macrocycle opened); cut site not given) APTSSSTKKTQLQLEHLLLDLQKILNGINNYKNPKLTRXLXYKFYXPKKATELKHLQCLEEELKPLEEVLXLAQSKNFHLRPRDLISNINVIVLELKGSETTFXCEYADETATIVEFLNRWITFSQSIISTLT | 5.31 nM |
